# TEST DETAILS: In vivo pharmacokinetic studies in rats
# Set-up: species or system SD rats
# RECORDED CONDITIONS: Sprague-Dawley, rat, plasma, po, 10 mg/kg, rats, repeat 10 mg/kg PO QD, Day 1, individual animal; read-out: AUClast

# COMPOUND SMILES, AUC(0-t) / ng·h/mL
data = [
    ("CC[C@H](N)c1csc(C(=O)c2c[nH]c3cc(F)ccc23)n1", 6260),
]

---

# TEST DETAILS: In vivo pharmacokinetic studies in mice
# Design: species or system Balb/C mice
# RECORDED CONDITIONS: mouse, plasma; Balb/C mice, single dose IP 40 mg/kg
PROPERTY LABEL: Cmax (ng/mL)

# COMPOUND SMILES, PROPERTY LABEL, RECORDED NUMBER
rows = [
    ("CC[C@H](N)c1csc(C(=O)c2c[nH]c3cc(F)ccc23)n1", "Cmax", 6230),
]

---

Catalogue of % Compound Metabolized at 30 min, No Inhibitor readings, one per entry.
# TEST DETAILS: CYP profiling: turnover in human liver microsomes, 30 min, no inhibitor
# Assay type: in vitro ADME
# Parameters: concentration or dose not given beside the values
# RECORDED CONDITIONS: HLMs
PROPERTY LABEL: % Compound Metabolized at 30 min, No Inhibitor

# COMPOUND, RESULT
measured = [
    ("CC[C@H](O)c1csc(C(=O)c2c[nH]c3cc(F)ccc23)n1", "37%"),
    ("CC[C@@H](N)c1csc(C(=O)c2c[nH]c3cc(F)ccc23)n1", "4%"),
    ("CC[C@@H](N)c1csc(C(=O)c2c[nH]c3ccc(F)cc23)n1", "13%"),
    ("CC[C@H](N)c1csc(C(=O)c2c[nH]c3ccc(F)cc23)n1", "16%"),
    ("NC(c1csc(C(=O)c2c[nH]c3ccccc23)n1)C(F)(F)F (stereo not shown)", "2%"),
    ("N[C@H](c1csc(C(=O)c2c[nH]c3ccccc23)n1)C(F)(F)F", "89%"),
    ("O=C(c1nc([C@H](O)C(F)(F)F)cs1)c1c[nH]c2cc(F)ccc12", "43%"),
    ("CC[C@H](N)c1csc(C(=O)c2c[nH]c3cc(F)ccc23)n1", "13%"),
    ("N[C@H](c1csc(C(=O)c2c[nH]c3cc(F)ccc23)n1)C(F)(F)F", "79%"),
    ("N[C@@H](c1csc(C(=O)c2c[nH]c3cc(F)ccc23)n1)C(F)(F)F", "9%"),
    ("N[C@@H](c1csc(C(=O)c2c[nH]c3ccccc23)n1)C(F)(F)F", "0%"),
    ("NC1(c2csc(C(=O)c3c[nH]c4cc(F)ccc34)n2)CC1", "39%"),
    ("O=C(c1nc(C2(O)CC2)cs1)c1c[nH]c2cc(F)ccc12", "95%"),
    ("CC(C)(N)c1csc(C(=O)c2c[nH]c3cc(F)ccc23)n1", "6%"),
    ("CC(C)(O)c1csc(C(=O)c2c[nH]c3cc(F)ccc23)n1", "41%"),
    ("O=C(c1nc([C@@H](O)C(F)(F)F)cs1)c1c[nH]c2cc(F)ccc12", "50%"),
]
